assay: in vivo; conditions: Sprague-Dawley, rat, normal brain, ip, 10 mg/kg
test-readout: Kp at 2 h

{"columns": ["structure-smiles", "test-readout", "assay-result"],
 "data": [
  ["Cc1ccc(C(=O)N(CCCN)[C@@H](c2nc3cc(Cl)ccc3c(=O)n2Cc2ccccc2)C(C)C)cc1", "Kp at 2 h", 0.11]
]}

----------
test: in vivo; conditions: Sprague-Dawley, rat, tumor core, ip, 10 mg/kg

{"columns": ["structure-smiles", "Kp at 2 h"],
 "data": [
  ["Cc1ccc(C(=O)N(CCCN)[C@@H](c2nc3cc(Cl)ccc3c(=O)n2Cc2ccccc2)C(C)C)cc1", 0.77]
]}

Measured values drawn from paper PMC7162859 for this set.
